Assay System: Human immunodeficiency virus type 1 reverse transcriptase (Human immunodeficiency virus 1, UniProt Q72547, L100I)
Assay Name: Inhibition of HIV1 reverse transcriptase L100I mutant expressed in Escherichia coli assessed as incorporation of [3H]dTTP into poly(rA)/oligo(dT) by scintillation counting
Observable: IC50 (nM)
One number for each entry, in nM.

Reference set (5 entries):
1) Cc1cc(C)cc(S(=O)(=O)c2c(C(=O)NCN3CCCC3)[nH]c3ccc(Cl)cc23)c1
26
2) Cc1cc(C)cc(S(=O)(=O)c2c(C(=O)NCCN3CCOCC3)[nH]c3ccc(Br)cc23)c1
108
3) Cc1cc(C)cc(S(=O)(=O)c2c(C(=O)NCc3ccccc3)[nH]c3ccc(Cl)cc23)c1
15
4) Cc1cc(C)cc(S(=O)(=O)c2c(C(=O)NCCc3ccccc3)[nH]c3ccc([N+](=O)[O-])cc23)c1
40
5) Cc1cc(C)cc(S(=O)(=O)c2c(C(=O)NCCN3CCOCC3)[nH]c3ccc(Cl)c(F)c23)c1
747

For every item below, please supply its IC50.
1. Cc1cc(C)cc(S(=O)(=O)c2c(C(=O)NCCn3cccc3)[nH]c3ccc(Cl)c(F)c23)c1
2. Cc1cc(C)cc(S(=O)(=O)c2c(C(=O)NCCN3CCOCC3)[nH]c3ccc([N+](=O)[O-])cc23)c1
3. Cc1cc(C)cc(S(=O)(=O)c2c(C(=O)NCN3CCCCC3)[nH]c3ccc(Cl)cc23)c1

[30, 421, 37]

###

Tested on: Human immunodeficiency virus 1
Assay Name: Antiviral activity against […] harboring reverse transcriptase K103N mutant infected in human MT-4 cells assessed as inhibition of virus-induced cytopathicity after 4 days by MTT assay
Type: functional, organism-based
Condition: Human immunodeficiency virus 1, MT4, 96 h
Answer each item with its documented EC50.
Numbers only, in nM.

These recorded examples may help you get a feel for the data.
1. Cc1cc(C)cc(S(=O)(=O)c2c(C(=O)NCCc3ccccc3)[nH]c3ccc(Cl)cc23)c1
52
2. Cc1cc(C)cc(S(=O)(=O)c2c(C(=O)NCc3ccccc3)[nH]c3ccc(Br)cc23)c1
15

Which EC50 is reported for this compound? Cc1cc(C)cc(S(=O)(=O)c2c(C(=O)NCc3ccccc3)[nH]c3ccc([N+](=O)[O-])cc23)c1
11

###

Assay Name: Selectivity index, CC50 for human CEM cells to IC50 for HIV1 3B
Assay type: functional, CCRF-CEM
Classes are defined on Selectivity Index with ranges b0 (below 2000), b1 (2000 to below 8000), b2 (8000 or more)

1) Cc1cc(C)cc(S(=O)(=O)c2c(C(=O)NCN3CCCC3)[nH]c3ccc(Br)cc23)c1
b1

Band of Cc1cc(C)cc(S(=O)(=O)c2c(C(=O)NCCc3ccccc3)[nH]c3ccc(Cl)cc23)c1 ?
b2

Next molecule: Cc1cc(C)cc(S(=O)(=O)c2c(C(=O)NCc3ccccc3)[nH]c3ccc([N+](=O)[O-])cc23)c1
b0

Now the molecule Cc1cc(C)cc(S(=O)(=O)c2c(C(=O)NCN3CCCC3)[nH]c3ccc(Cl)cc23)c1
b1

Also Cc1cc(C)cc(S(=O)(=O)c2c(C(=O)NCc3ccccc3)[nH]c3ccc(Br)cc23)c1 , if possible.
b2

Item: Cc1cc(C)cc(S(=O)(=O)c2c(C(=O)NCCn3cccc3)[nH]c3ccc([N+](=O)[O-])cc23)c1
b2

Next: Cc1cc(C)cc(S(=O)(=O)c2c(C(=O)NCCOc3ccccc3)[nH]c3ccc([N+](=O)[O-])cc23)c1
b2

Cc1cc(C)cc(S(=O)(=O)c2c(C(=O)NCN3CCCC3)[nH]c3ccc([N+](=O)[O-])cc23)c1 , same question.
b1

Record: Cc1cc(C)cc(S(=O)(=O)c2c(C(=O)NCN3CCOCC3)[nH]c3ccc(Br)cc23)c1
b2

Proceed to Cc1cc(C)cc(S(=O)(=O)c2c(C(=O)NCCOc3ccccc3)[nH]c3ccc(Cl)c(F)c23)c1
b0

Would you mind doing Cc1cc(C)cc(S(=O)(=O)c2c(C(=O)NCCc3ccccc3)[nH]c3ccc(Br)cc23)c1 as well?
b2
